Where these numbers come from: patent US20140322196A1

Measured pEC50 of individual entries
tested on: A/Roma-ISS/2/08 H1N1; details: read-out: EC50 (effective concentration 50%); A/Roma-ISS/2/08 H1N1, MDCK cells
Ends that are not written are not given here.
# pEC50 is unitless: minus log10 of the molar concentration; print number only

                                 seq_string  reported_value
0  AGDDQGLDKCVPNSKEK [SEQ ID NO: 2, AGDDQGLDKCVPNSKEK]           11.43

// switching to the query sequence
Give reported pEC50 value for SKHSSLDCVLRP [SEQ ID NO: 1, SKHSSLDCVLRP]
11.40
